Data provenance is patent EP3964526A1.

Biological target: T1, recombinant human VEGF165 (PeproTech EC Ltd.) (human, UniProt P15692-4 27-191)
T1 construct: Amine-coupled to a CM4 sensor chip; also called hVEGF165
T1 sequence (P15692 other isoform, or with tags, fused parts or gaps limits assumed): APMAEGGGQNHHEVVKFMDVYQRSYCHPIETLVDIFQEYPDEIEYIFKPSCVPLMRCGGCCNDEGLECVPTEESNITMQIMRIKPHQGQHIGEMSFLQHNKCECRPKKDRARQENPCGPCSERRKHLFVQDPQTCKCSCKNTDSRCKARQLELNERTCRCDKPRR
Assay: SPR BIAcore T100, hVEGF165 amine-coupled on CM4 chip, scFv as analyte
pKd: −log10 of the molar value.
Quick rule: pKd of at least 9 means yes (1), below that means no (0).

>>> assigned_label("578-max (scFv) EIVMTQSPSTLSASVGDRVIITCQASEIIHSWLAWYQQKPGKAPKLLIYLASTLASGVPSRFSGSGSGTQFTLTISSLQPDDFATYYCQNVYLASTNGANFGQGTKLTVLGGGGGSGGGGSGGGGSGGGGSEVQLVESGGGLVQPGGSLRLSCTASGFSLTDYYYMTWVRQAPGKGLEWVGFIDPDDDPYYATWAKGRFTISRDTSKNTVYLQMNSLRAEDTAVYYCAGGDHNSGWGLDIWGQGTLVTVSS")
"yes (1)"
>>> assigned_label("435-max (scFv) EIVMTQSPSTLSASVGDRVIITCQASQSIGSSLAWYQQKPGKAPKLLIYTAANLASGVPSRFSGSRSGAEFTLTISSLQPDDFATYYCQNFATSDTVTFGQGTKLTVLGGGGGSGGGGSGGGGSGGGGSEVQLVESGGGLVQPGGSLRLSCKASGFSLNTNYWMCWVRQAPGKGLEWVGCMYTGSYNRAYYASWAKGRFTSSKDTSKNTVYLQMNSLRAEDTAVYYCAKGSNWYSDLWGQGTLVTVSS")
"no (0)"
>>> assigned_label("567-max (scFv) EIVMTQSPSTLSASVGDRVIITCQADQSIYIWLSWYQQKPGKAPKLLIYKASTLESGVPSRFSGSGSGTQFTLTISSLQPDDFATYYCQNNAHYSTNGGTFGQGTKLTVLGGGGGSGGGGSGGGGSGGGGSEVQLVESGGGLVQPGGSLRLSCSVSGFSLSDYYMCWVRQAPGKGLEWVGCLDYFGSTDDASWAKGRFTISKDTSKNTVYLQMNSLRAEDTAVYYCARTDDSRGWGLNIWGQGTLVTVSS")
"yes (1)"
>>> assigned_label("511-min (scFv, V domains shown) VH: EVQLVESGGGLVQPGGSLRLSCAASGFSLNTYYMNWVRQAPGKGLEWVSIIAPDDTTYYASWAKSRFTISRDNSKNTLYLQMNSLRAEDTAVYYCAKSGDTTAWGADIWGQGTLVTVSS VL: EIVMTQSPSTLSASVGDRVIITCQASQSINIWCSWYQQKPGKAPKLLIYRASTLASGVPSRFSGSGSGAEFTLTISSLQPDDFATYYCQANYAYSAGYGAAFGQGTKLTVL")
"no (0)"
